- system_name: KRas G12V (Homo sapiens, UniProt P01116, G12V)
- Sequence (P01116 1-169 isoform P01116-2 G12V): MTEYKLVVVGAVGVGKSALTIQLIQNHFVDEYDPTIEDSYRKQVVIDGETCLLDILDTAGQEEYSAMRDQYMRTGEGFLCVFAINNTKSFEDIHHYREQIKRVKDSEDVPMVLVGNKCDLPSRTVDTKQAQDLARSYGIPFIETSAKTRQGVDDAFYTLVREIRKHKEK
- test_description: biochemical
- condition: Binding to KRas (IC50 nM) G12V, TR-FRET displacement, KRas G12V
observable: IC50 (nM)

compound	reading
CCc1c(F)ccc2cc(O)cc(N3CCc4c(nc(OC[C@@]56CCCN5C[C@H](F)C6)nc4N4CCCC5(CCNC5=O)C4)C3)c12 (stereo partly drawn) [Example 401]	22
CCc1cccc2cccc(N3CCc4c(nc(OCC5(CN(C)C)CC5)nc4N4CCCC(c5nccn5C)C4)C3)c12 (stereo not drawn) [Example 692]	8850
CCc1c(F)ccc2cc(O)cc(N3CCc4c(nc(OC[C@@]56CCCN5C[C@H](F)C6)nc4N4CCCn5nc(N(C)C(C)=O)cc5C4)C3)c12 [Example 355]	6

(a) CCc1c(F)ccc2cc(O)cc(N3CCc4c(nc(OC[C@@]56CCCN5C[C@H](F)C6)nc4NCC4CNS(=O)(=O)N4)C3)c12 (stereo partly drawn) [Example 410]
(b) Cc1cc2[nH]ncc2c(N2CCc3c(nc(OCC45CCCN4CCC5)nc3N3CCC[C@]4(C3)NC(=O)NC4=O)C2)c1C [Example 455]
Query: Hi team, can someone confirm which has the larger IC50: a or b ? Thanks. # reply format: chosen label
Result: a

---

// reported inhibition at 0.1 µM for each item listed
- Tested on: ASPC1 cells
- test_description: Inhibition of KRas-mediated phosphorylation of ERK (Cisbio HTRF pERK), ASPC1 cells
- Type: cell-based
- condition: Homo sapiens, ASPC1; single point at 100 nM; AsPC-1 cells; 3 hrs compound incubation
Give the quantity in %, number only.

Example results:
molecule	reading
CCc1c(F)ccc2cc(O)cc(N3CCc4c(nc(OC[C@@]56CCCN5C[C@H](F)C6)nc4N4CCCCC(COCC(=O)NC)C4)C3)c12 (stereo partly shown)	12
CCc1c(F)ccc2cc(O)cc(N3CCc4c(nc(OC[C@@]56CCCN5C[C@H](F)C6)nc4N4CCCn5nc(C(=O)N(C)C6CC6)cc5C4)C3)c12	97
CCc1c(F)ccc2cc(O)cc(N3CCc4c(nc(OC[C@@]56CCCN5C[C@H](F)C6)nc4N4CCCCn5nc(C(=O)N(C)C)cc5C4)C3)c12	96
CCc1c(F)ccc2cc(O)cc(N3CCc4c(nc(OC[C@@]56CCCN5C[C@H](F)C6)nc4N4CCCn5nc(C(=O)NC)c(C)c5C4)C3)c12	94

Lab note: CCc1c(F)ccc2cc(O)cc(N3CCc4c(nc(OC[C@@]56CCCN5C[C@H](F)C6)nc4N4CCCn5nc(C(=O)N6CCC7CC6CN7C)cc5C4)C3)c12 (stereo partly shown) gave inhibition at 0.1 µM of 86

Recorded inhibition at 0.1 µM (molecule CCCCN(C)C(=O)c1cc2n(n1)CCCN(c1nc(OC[C@@]34CCCN3C[C@H](F)C4)nc3c1CCN(c1cc(O)cc4ccc(F)c(CC)c14)C3)C2 ): 96

---

- system_name: KRas G12V (Homo sapiens, UniProt P01116, G12V)
- test_description: biochemical
- condition: Binding to KRas (IC50 nM) G12V, TR-FRET displacement, KRas G12V
observable: IC50 (nM)

Consider the reported IC50 for these compounds:
compound	IC50 (nM)
CCc1c(F)ccc2cc(O)cc(N3CCc4c(nc(OC[C@@]56CCCN5C[C@H](F)C6)nc4N4CCCc5nc(C(=O)N(C)C)sc5C4)C3)c12	3
CCc1cccc2cccc(N3CCc4c(nc(OCC5(CN(C)C)CC5)nc4NCc4ccnn4C4CC4(F)F)C3)c12 (stereo not drawn)	5980

(A) CCc1cccc2cccc(N3CCc4c(nc(OCC5(CN(C)C)CC5)nc4N4CCC(n5cn[nH]c5=O)CC4)C3)c12
(B) O=C1CC2(CCCN(c3nc(OCC45CCCN4CCC5)nc4c3CCN(c3cc(O)cc(Cl)c3C3CC3)C4)C2)N1 (stereo not drawn)
Query: Hi! Which is lower in terms of IC50, the first one A or the second one B ? Provide the label of your selected option as the answer.
Result: B
